# Test system: SW-620 colon
# Test Summary: NCI-60 one-dose screen, 48 h (100 = growth as untreated, 0 = no growth, -100 = all killed)
# Condition: 10 µM unless noted
The panel holds about 83,000 compounds, 20% with a hit somewhere; the sample as a whole holds those more often.
Values of growth greater than or equal to 90% map to Y; values below map to N.

{"columns": ["Molecule", "Group"],
 "data": [
  ["CCC(C)(C)C(=O)O[C@H]1C[C@@H](C)C=C2C=C[C@H](C)[C@H](CC[C@@H]3C[C@@H](O)CC(=O)O3)[C@H]21", "N"],
  ["COc1ccc(-c2cnnn2-c2cc(OC)c3c(c2)OCO3)cc1", "N"],
  ["COc1cc(/C=C/C(=O)c2ccc(F)cc2)ccc1OCCCCCOc1cc2c(cc1OC)C(=O)N1CCCC1C=N2 (stereo not drawn)", "N"],
  ["O=C(c1ccccc1)c1ccccc1Cl", "Y"],
  ["C/C(=N\\N1CC(=O)NC1=O)c1ccc([N+](=O)[O-])o1", "Y"],
  ["C[C@]12CC[C@@H]3c4ccc(O)c([N+](=O)[O-])c4CC[C@H]3[C@@H]1CC[C@@H]2NS(=O)(=O)c1cccc(Br)c1", "N"],
  ["COc1cc([C@@H]2c3cc4c(cc3C(O[C@@H]3O[C@@H]5CO[C@@H](c6cccs6)OC5[C@H](O)[C@H]3O)C3COC(=O)[C@@H]32)OCO4)cc(OC)c1O (stereo partly drawn)", "N"]
]}
